- Assay context: buffer; pH 7.4; 200.0 µM
solubility kinetic vs 20 µg/mL: at or above is Met, below is Not met.

1. Cl.Fc1c(F)c(F)c(N2CCNCC2)c(F)c1F | Met
2. COc1cc(CCC(C)NCc2ccccc2)ccc1O (stereo not given) | Met
3. COC(=O)Cn1cc(C(=O)C(F)(F)F)c2ccccc21 | Not met
4. COC(=O)c1ccc(CN2C(=O)NC(CC(C)C)C2=O)cc1 (stereo not given) | Met
5. O=C(CCc1ccccc1)Nc1cc2c3c(c1)CCC(=O)N3CCC2 | Met
6. S=C(NCCNC(=S)Nc1ccccc1)Nc1ccccc1 | Not met
7. CN(C(=O)Nc1ccc(C(C)(C)C)cc1)C1CCCCC1 | Not met
8. CCc1ccc(NC(=O)Nc2cnccn2)cc1 | Not met
9. Fc1cccc(Cl)c1CNCc1cccnc1 | Met
10. c1ccc(CCCN2CCN(c3ccccn3)CC2)cc1 | Met
11. Cc1ccc(S(=O)(=O)NC2=NCN(C)CN2)cc1[N+](=O)[O-] | Met
12. N/C(=N\OC(=O)c1cccc(Br)c1)c1ccccn1 | Not met
13. CSCc1ccc(C(=O)Nc2ccc(C(N)=O)cc2)cc1 | Not met
14. N#Cc1c(-c2ccccc2)cc(-c2ccccc2)nc1SCC(=O)O | Met
15. CCOc1ccccc1Oc1nc(-c2ccccc2O)nc2ccccc12 | Not met
16. O=C1NC(=O)N(Cc2ccccc2)C(=O)/C1=C/C=C/c1ccco1 | Not met
17. CC(C)N1CCNCC1.Cl | Met
18. Cc1ccnc(NC(=O)CCNS(=O)(=O)c2ccc(C)c(C)c2)c1 | Met
19. CCCCC(Sc1nc(C)c(Cc2ccccc2)c(=O)[nH]1)C(=O)O (stereo not given) | Met
20. O=C(O)c1ccccc1C(=O)NCCc1ccc(Cl)cc1 | Met
21. Cl.O=C(NCCCN1CCOCC1)c1cc(S(=O)(=O)N2CCOCC2)ccc1Cl | Met
22. CC1CCCCC1NC(=O)COC(=O)c1cccn1C (stereo not given) | Met
23. CCOc1ccccc1NC(=O)CN1C(=O)CSC(C)C1=O (stereo not given) | Met
24. CC(=O)Nc1ccc(-c2nc3ccccc3c(=O)o2)cc1 | Not met
25. O=C1NCCN/C1=C\C(=O)c1ccc(Br)cc1 | Not met
26. Cc1cc(=O)[nH]c(SCCc2ccccc2)n1 | Met
27. O=c1c2ccccc2[nH]c(=S)n1-c1ccc2c(c1)OCCO2 | Not met
28. CC1CN(CC(=O)NCc2ccc(Cl)cc2)CC(C)O1 (stereo not given) | Met
29. CC(C(=O)Nc1ccc(F)c(F)c1F)N(C)Cc1cccs1 (stereo not given) | Not met
30. COc1ccc(CCNC(=O)COC(=O)c2cc(S(=O)(=O)N3CCOCC3)ccc2C)cc1OC | Met
31. O=C(O)CN1C(=O)/C(=C/c2cccc(Cl)c2)Oc2ccccc21 | Met
32. O=C(Cc1ccc(Cl)cc1)Nc1ncccn1 | Met
33. COC(=O)[C@@H](C)NC(=O)c1ccc2oc(CCc3ccccc3)nc2c1 | Met
34. O=C(NCC1CCCO1)c1cccc(NC(=O)c2ccccc2)c1 (stereo not given) | Met
35. CC(C)CC(=O)c1c[nH]c(C(=O)NCc2cccnc2)c1 | Met
36. CCc1ccccc1Nc1nc(-c2cccnc2)cs1 | Not met
37. N#Cc1cnc(NCc2ccc(Cl)cc2Cl)nc1 | Not met
38. CC1CCCC(C)N1C(=O)CSc1nc(N)cc(N)n1 (stereo not given) | Met
39. CC(OC(=O)C1CC2CCCC(C1)C2=O)C(=O)Nc1cccc([N+](=O)[O-])c1 (stereo not given) | Met
40. Cc1ccccc1NC(=S)N1CCN(c2ccccc2Cl)CC1 | Not met
